Study System: T1, rat TrkB monomer (His ECD) (rat, UniProt Q63604 32-429)
T1 construct: extracellular domain; amine-coupled to the chip
T1 sequence (Q63604 32-429): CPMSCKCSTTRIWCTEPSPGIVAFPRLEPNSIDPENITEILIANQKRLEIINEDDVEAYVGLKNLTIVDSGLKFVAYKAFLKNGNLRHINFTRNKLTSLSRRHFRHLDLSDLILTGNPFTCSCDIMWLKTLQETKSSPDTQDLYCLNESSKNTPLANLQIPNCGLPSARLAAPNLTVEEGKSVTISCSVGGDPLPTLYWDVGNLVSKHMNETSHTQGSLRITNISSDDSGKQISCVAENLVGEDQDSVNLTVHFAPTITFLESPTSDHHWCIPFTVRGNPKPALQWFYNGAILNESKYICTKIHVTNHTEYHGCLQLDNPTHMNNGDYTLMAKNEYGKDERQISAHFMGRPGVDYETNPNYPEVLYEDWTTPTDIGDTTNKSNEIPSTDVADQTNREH
Protocol Summary: SPR (Biacore), Fab over amine-coupled TrkB His ECD monomer, 25 C
Experimental: TrkB monomers (H is ECD) of human, mouse, and rat were amine-coupled to the chip at levels of 2008, 1008, and 889RU respectively in an effort to give low capacity surfaces suitable for kinetic analysis. […] The concentrations of the Fab proteins are determined by ELISA and/or SDS-PAGE electrophoresis using a Fab of known concentration (as determined by amino acid analysis) as a standard. […] Equilibrium dissociation constant (KD) values are calculated as koff/kₒₙ.
Readout Label: koff (s⁻¹)
Express your answer in s⁻¹, writing the number without its unit.

Some solved entries appear below for comparison.
4A6 (Fab, V domains shown, Fab) VH: QVQLVQSGAEVKKPGASVKVSCKASGYTFTNYDIIWVRQAPGQGLEWMGYINPYNRRREYNEKFKGRVTMTRDTSTSTVYMELSSLRSEDTAVYYCARLLKYRRFRYYAIDYWGQGTTVTVSS VL: DIQMTQSPSSLSASVGDRVTITCHASENVYSNLAWYQQKPGKAPKLLIYAASNLQSGVPSRFSGSGSGTDYTFTISSLQPEDIATYYCQHFWGSPFTFGQGTKLEIK; 0.000666
4B12 (Fab, V domains shown, Fab) VH: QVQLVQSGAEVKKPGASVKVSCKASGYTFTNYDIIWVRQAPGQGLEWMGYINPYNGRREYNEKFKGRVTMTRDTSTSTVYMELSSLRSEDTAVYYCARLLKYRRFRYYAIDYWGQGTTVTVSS VL: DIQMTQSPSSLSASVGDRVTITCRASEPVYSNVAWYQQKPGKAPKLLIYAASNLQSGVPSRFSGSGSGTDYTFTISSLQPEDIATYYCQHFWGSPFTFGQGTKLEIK; 0.00081
C2 (Fab, V domains shown, Fab) VH: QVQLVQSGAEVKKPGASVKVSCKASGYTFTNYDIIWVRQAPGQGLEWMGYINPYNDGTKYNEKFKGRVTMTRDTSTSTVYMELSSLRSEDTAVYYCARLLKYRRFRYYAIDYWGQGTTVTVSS VL: DIQMTQSPSSLSASVGDRVTITCRTSENVYSNLAWYQQKPGKAPKLLIYAASNLQSGVPSRFSGSGSGTDYTFTISSLQPEDIATYYCQHFWGSPFTFGQGTKLEIK; 0.00146

# input for lookup
Query: Specify koff for A2 (Fab, V domains shown, Fab) VH: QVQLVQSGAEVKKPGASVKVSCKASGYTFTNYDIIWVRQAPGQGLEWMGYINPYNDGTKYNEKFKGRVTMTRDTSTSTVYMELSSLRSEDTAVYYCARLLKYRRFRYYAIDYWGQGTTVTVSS VL: DIQMTQSPSSLSASVGDRVTITCRASENVYSNLAWYQQKPGKAPKLLIYAASNLQSGVPSRFSGSGSGTDYTFTISSLQPEDIATYYCQHFWYSPWTFGQGTKLEIK and stop.
Response: 0.00152
